- targetEntity: human A3 receptors (Homo sapiens)
- Construct: expressed in transfected cells; host or cells: HEK-293 cells (membranes)
- Sequence (P0DMS8 1-318): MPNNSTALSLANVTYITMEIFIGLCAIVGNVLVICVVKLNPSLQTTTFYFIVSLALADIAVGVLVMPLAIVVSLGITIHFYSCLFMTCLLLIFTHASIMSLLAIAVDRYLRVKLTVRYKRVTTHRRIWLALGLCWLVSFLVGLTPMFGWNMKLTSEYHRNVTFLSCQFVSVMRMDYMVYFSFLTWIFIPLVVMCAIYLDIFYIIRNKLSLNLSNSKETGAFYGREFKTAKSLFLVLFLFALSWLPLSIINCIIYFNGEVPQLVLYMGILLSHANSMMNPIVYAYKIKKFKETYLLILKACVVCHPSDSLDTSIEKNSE
- testProtocol: radioligand binding, displacement of specific [125I]AB-MECA binding at human A3 receptors expressed in HEK-293 cells
- setupConditions: Table 6; [125I]AB-MECA, HEK-293 membranes; read-out: K2 (hA3)
pKi: −log10 of the molar value.
metricName: pKi

Completed entries (count: 2):
COc1ccc(-c2oc3cc(OC)cc(OC)c3c(=O)c2OC)c(OC)c1
5.58
COc1ccc(-c2oc3cc(OC)cc(OC)c3c(=O)c2OC)cc1
5.47

1: COc1cc2oc(-c3ccc(O)cc3)cc(=O)c2c(O)c1OC [Compound 33, cirsimaritin, reference compound]
2: COc1cc(OC)c2c(=O)c(OC)c(-c3cc(OC)c(OC)c(OC)c3)oc2c1
Hey, which is lower on measured pKi, 1 or 2 ? Write the label of whichever entry you select.
2
(2: 4.79, 1: 5.76)

----------
- targetEntity: A2a receptors (Rattus norvegicus, UniProt P30543)
- Construct: Displacement of specific [^3 H]; from tissue; host or cells: rat striatal membranes
- Sequence (P30543 whole entry): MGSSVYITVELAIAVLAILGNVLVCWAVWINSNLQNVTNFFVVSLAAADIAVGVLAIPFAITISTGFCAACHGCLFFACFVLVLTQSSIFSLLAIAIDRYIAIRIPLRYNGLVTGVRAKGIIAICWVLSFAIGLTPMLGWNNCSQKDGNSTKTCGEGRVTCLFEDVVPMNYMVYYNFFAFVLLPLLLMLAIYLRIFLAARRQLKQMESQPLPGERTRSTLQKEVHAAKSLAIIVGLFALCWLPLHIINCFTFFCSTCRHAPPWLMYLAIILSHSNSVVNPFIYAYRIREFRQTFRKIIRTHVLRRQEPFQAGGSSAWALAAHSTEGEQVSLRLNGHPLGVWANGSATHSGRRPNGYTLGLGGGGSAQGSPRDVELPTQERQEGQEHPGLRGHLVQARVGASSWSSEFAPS
- testProtocol: radioligand binding, displacement of specific [3H]CGS 21680 binding in rat striatal membranes
- setupConditions: striatal membranes; read-out: K2 (rA2a)
Reported Ki by item:
Respond numerically; units are µM and should not be typed.

COc1c(O)cc2oc(-c3ccc(O)cc3)cc(=O)c2c1O [Compound 32, hispidulin, reference compound]
6.48

State the recorded Ki for this entry: O=c1cc(-c2ccccc2)oc2cc(O)ccc12 [Compound 26, reference compound]
2.68

----------
Reported Ki by item:
- targetEntity: A2a receptors (Rattus norvegicus, UniProt P30543)
- Construct: Displacement of specific [^3 H]; from tissue; host or cells: rat striatal membranes
- testProtocol: radioligand binding, displacement of specific [3H]CGS 21680 binding in rat striatal membranes
- setupConditions: Table 7; [3H]CGS 21680, rat striatal membranes; read-out: Ki (rA2A)
Respond numerically; units are µM and should not be typed.

Completed entries (count: 4):
COc1cc2c(c(O)c1OC)c(=O)c1ccccc1n2C [Compound 51, reference compound]
6.47
O=c1cc(-c2ccccc2)oc2c1ccc1ccccc12 [Compound 43, α-naphthoflavone, reference compound]
1.32
O=C1c2ccccc2-c2cc3c(cc21)OCO3
84
CCn1c2c(c3cc4c(cc3c1=O)OCO4)C(=O)CCC2 [Compound 46, reference compound]
6.98

State the recorded Ki for this entry: COc1cc2c3c(oc(=O)c2cc1OC)CCCC3=O
29.9

----------
- targetEntity: A2a receptors (Rattus norvegicus, UniProt P30543)
- Construct: Displacement of specific [^3 H]; from tissue; host or cells: rat striatal membranes
- testProtocol: radioligand binding, displacement of specific [3H]CGS 21680 binding in rat striatal membranes
- setupConditions: Table 6; [3H]CGS 21680, rat striatal membranes; read-out: K2 (rA2a)
metricName: Ki (µM)

O=c1cc(-c2ccccc2)oc2cccc(O)c12 [Compound 25, reference compound]
6.2
O=c1c(O)c(-c2ccc(O)c(O)c2)oc2cc(O)cc(O)c12 [Compound 37, quercetin, reference compound]
6.99
COc1ccc(-c2cc(=O)c3ccc(O)cc3o2)cc1OC [Compound 27, reference compound]
35.4
COc1ccc(-c2cc(=O)c3c(O)cc(C)cc3o2)cc1 [Compound 29, reference compound]
28
CC(=O)Oc1cc(OC(C)=O)c2c(=O)c(OC(C)=O)c(-c3ccccc3)oc2c1 [Compound 34, 3,5,7-triacetoxyflavone]
56.5
O=c1cc(-c2ccc(O)cc2)oc2cc(O)cc(O)c12 [Compound 28, apigenin, reference compound]
7.58

a: COc1cc2oc(-c3ccc(O)cc3)cc(=O)c2c(O)c1OC [Compound 33, cirsimaritin, reference compound]
b: COc1ccc(-c2oc3cc(OC)cc(OC)c3c(=O)c2OC)c(OC)c1 [Compound 38, 2',3,4',5,7-pentamethyloxyflavone]
Hey, which is lower on measured Ki, a or b ? Write the label of whichever entry you select.
a
